Molecular target: GTPase HRas (Homo sapiens)
Test: Ras wt fluorescent GTP loading blockade – biochemical, wildtype, multiplex bead flow cytometry, dose response (AID 1335)
Settings: bead-based flow cytometry, Bodipy-GTP binding to GST-Ras; at 100 µM (top of the series) unless noted
Experimental Readout: GTP binding, percent of control (%)
Unit % implied. Number only.

{"Compound": "CCC/C(O)=C1\\C(=O)CC(C)(C)CC1=Nc1ccccc1OC", "Measured On": "GTPase HRas (Homo sapiens)", "GTP binding, percent of control [%]": 88.8}
{"Compound": "Cc1nnc(SCC(=O)N2CCOCC2)c2ccccc12", "Measured On": "GTPase HRas (Homo sapiens)", "GTP binding, percent of control [%]": 61.1}
{"Compound": "Cc1noc(/C=C/c2ccc(-c3ccccc3Cl)o2)c1[N+](=O)[O-]", "Measured On": "GTPase HRas (Homo sapiens)", "GTP binding, percent of control [%]": 171}
{"Compound": "CC(=O)Nc1ccc(NC(=O)CCn2nnc3ccccc32)cc1", "Measured On": "GTPase HRas (Homo sapiens)", "GTP binding, percent of control [%]": 81.1}
{"Compound": "O=C(O)/C=C/C(=O)Nc1cccnc1", "Measured On": "GTPase HRas (Homo sapiens)", "GTP binding, percent of control [%]": 64.4}
{"Compound": "O=C(Cc1csc(Nc2nc(=S)[nH]c3ccccc23)n1)NCCCN1CCN(c2cccc(Cl)c2)CC1", "Measured On": "GTPase HRas (Homo sapiens)", "GTP binding, percent of control [%]": 75.8}

Fill blank: measured GTP binding, percent of control of the compound `Cc1cc2nc3c(=O)n(C4CCCCC4)c(=O)[nH]c3nc2cc1N` is ____.
53.2

Subsequent entry: `c1ccc2[nH]c3cc4ncnc4cc3nc2c1`
70.1

Subsequent entry: `COc1ccccc1CNC(=O)c1c(N)n(CCCN2CCOCC2)c2nc3ccccc3nc12`
89.9

Subsequent entry: `COc1ccc(N=C2S/C(=C\c3ccc(N4CCOCC4)o3)C(=O)N2CCc2c[nH]c3ccccc23)cc1`
212

---

Entries and their inhibition values follow.
Molecular target: ATP-binding cassette sub-family B member 6 (Homo sapiens) (UniProt Q9NP58)
Sequence (Q9NP58 whole entry, looked up): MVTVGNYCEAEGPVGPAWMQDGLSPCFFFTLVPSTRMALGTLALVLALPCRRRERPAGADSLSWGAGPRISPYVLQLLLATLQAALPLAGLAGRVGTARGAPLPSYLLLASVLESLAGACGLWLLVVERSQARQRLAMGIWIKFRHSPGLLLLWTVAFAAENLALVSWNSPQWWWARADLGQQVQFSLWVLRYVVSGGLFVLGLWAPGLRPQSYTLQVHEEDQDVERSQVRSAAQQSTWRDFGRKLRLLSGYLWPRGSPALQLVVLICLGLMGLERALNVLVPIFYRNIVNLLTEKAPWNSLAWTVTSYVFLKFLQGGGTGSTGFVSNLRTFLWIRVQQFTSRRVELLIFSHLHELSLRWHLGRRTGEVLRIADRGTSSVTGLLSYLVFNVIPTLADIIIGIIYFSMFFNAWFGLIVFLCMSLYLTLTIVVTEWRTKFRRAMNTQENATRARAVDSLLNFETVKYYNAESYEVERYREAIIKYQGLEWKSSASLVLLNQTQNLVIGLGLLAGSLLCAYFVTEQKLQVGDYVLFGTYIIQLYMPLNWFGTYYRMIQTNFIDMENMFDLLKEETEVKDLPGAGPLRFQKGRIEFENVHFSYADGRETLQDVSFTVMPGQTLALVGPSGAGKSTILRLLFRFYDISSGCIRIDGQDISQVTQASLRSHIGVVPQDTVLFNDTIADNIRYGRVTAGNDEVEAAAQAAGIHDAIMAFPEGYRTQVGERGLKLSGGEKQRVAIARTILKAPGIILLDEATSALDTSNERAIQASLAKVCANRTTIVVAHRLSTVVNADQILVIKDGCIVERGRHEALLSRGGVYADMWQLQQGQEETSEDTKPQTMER
Assay: blockers of ABCB6-driven porphyrin uptake – K562-ABCB6 cells, flow cytometry, validation set, pilot screen (AID 588550);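 also: 0% = DMSO wells and 100% = benzethonium chloride 70 µM positive control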
Settings: K562-ABCB6 porphyrin accumulation, 1 h, at 10 µM, stronger effect = higher value
Unit % implied. Number only.

Here is how some compounds turned out for inhibition.
{"Compound": "CCOC(=O)[C@H]1O[C@@H]1C(=O)N[C@@H](CC(C)C)C(=O)NCCC(C)C", "Measured On": "ATP-binding cassette sub-family B member 6 (Homo sapiens) (UniProt Q9NP58)", "inhibition / %": 7}
{"Compound": "O=C(O)c1cc2cc(F)ccc2[nH]1", "Measured On": "ATP-binding cassette sub-family B member 6 (Homo sapiens) (UniProt Q9NP58)", "inhibition / %": 14}
{"Compound": "O=c1nc2sc3ccccc3n2c(=O)n1-c1ccc(Cl)cc1", "Measured On": "ATP-binding cassette sub-family B member 6 (Homo sapiens) (UniProt Q9NP58)", "inhibition / %": 11}
{"Compound": "O=C1CCCN1C(=O)CCC(=O)N1CCCC1=O", "Measured On": "ATP-binding cassette sub-family B member 6 (Homo sapiens) (UniProt Q9NP58)", "inhibition / %": -2}
{"Compound": "COc1cc(C2C(C(C)=O)=C(O)C(=O)N2c2ccc(C)cc2)ccc1O (stereo unspecified)", "Measured On": "ATP-binding cassette sub-family B member 6 (Homo sapiens) (UniProt Q9NP58)", "inhibition / %": -2}

Fill blank: measured inhibition of the compound `O=C(/C=C/c1ccc2c(c1)OCO2)NCc1ccc(F)cc1` is ____.
2

Subsequent entry: CCc1cc2c(C)cc(=O)oc2cc1OC(=O)C1CCCN1C(=O)OC(C)(C)C (stereo unspecified)
6

Subsequent entry: COc1ccc(NC(=O)CC(c2ccccc2)c2ccco2)cc1 (stereo unspecified)
3

Subsequent entry: `Cn1c([N+](=O)[O-])cnc1COC(N)=O`
11

Subsequent entry: `Nc1ccc(S(N)(=O)=O)cc1N`
14

Subsequent entry: `Cc1cccc(Nc2ncccc2C(=O)O)c1C`
6

Subsequent entry: O=C(CC1(O)C(=O)Nc2ccccc21)c1ccccc1O (stereo unspecified)
3

Subsequent entry: CC(N=C(NC#N)Nc1ccncc1)C(C)(C)C (stereo unspecified)
-10
